Molecular target: human prostaglandin E2 (subtype EP2) receptor (Homo sapiens)
Construct: host or cells: cells in a cell culture plate
Sequence (P43116 whole entry): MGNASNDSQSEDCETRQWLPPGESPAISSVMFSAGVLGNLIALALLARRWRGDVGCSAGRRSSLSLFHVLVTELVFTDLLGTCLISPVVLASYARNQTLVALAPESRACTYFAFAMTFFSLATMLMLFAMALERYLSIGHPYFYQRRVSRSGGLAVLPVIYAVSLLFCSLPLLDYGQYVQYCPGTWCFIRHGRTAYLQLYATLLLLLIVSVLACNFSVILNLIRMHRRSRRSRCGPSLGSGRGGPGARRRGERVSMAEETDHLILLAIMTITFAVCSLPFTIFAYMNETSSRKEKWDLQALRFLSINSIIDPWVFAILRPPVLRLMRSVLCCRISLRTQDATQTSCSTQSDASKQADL
Test: cAMP antagonism assay (HTRF cAMP detection, PGE2-stimulated cells)
Assay type: cell-based
Details: cAMP antagonism test, in presence of PGE2
quantity: IC50 (µM)

{"structure.notation": "Cc1[nH]c2c(F)ccc(C)c2c1CCNc1ncnc2cc(-c3cc(F)ccc3F)sc12", "IC50 (µM)": 0.097}
{"structure.notation": "Cc1[nH]c2c(F)ccc(C)c2c1CCNc1ncnc2cc(-c3ccc(C(F)(F)F)cc3)sc12", "IC50 (µM)": 0.101}
{"structure.notation": "Cc1[nH]c2c(F)ccc(C)c2c1CCNc1ncnc2cc(-c3cccc(F)c3)sc12", "IC50 (µM)": 0.111}
